# experimentalSystem: human GLP-1 receptor (human, UniProt P43220 24-463)
# protocolNotes: cell-based or functional assay
Each record here notes measured GLP-1 activity (EC50, pM); CRE luciferase reporter.
Please give a number only; it is taken to be in pM.

# count of solved cases: 6
Compound 20 (ligand, Moiety A (HOOC-(CH2)16-CO-gGlu-2XADO) on 51K and 221K of fusion polypeptide) HGEGTFTSDVSSYLEEQAAREFIAWLVRGGGGGGGSGGGGSGGGGSGGGGKHPIPDSSPLLQFGGQVRQRYLYTDDAQQTEAHLEIREDGTVGGAADQSPESLLQLRALRPGVIQILGVRTSRFLCQRPDGALYGSLHFDPEACSFRELLLEDGYNVYQSEAHGLPLHLPGQRSPHRDPAPRGPARFLPLPGLPPALPEPPGILAPQPPDVGSSDPLSLVKPSQGRSPSYES	39.1
Compound 4 (ligand, Moiety A (HOOC-(CH2)16-CO-gGlu-2XADO) on 51K and 231K of fusion polypeptide) HGEGTFTSDVSSYLEEQAAREFIAWLVRGGGGGGGSGGGGSGGGGSGGGGKHPIPDSSPLLQFGGQVRQRYLYTDDAQQTEAHLEIREDGTVGGAADQSPESLLQLRALRPGVIQILGVRTSRFLCQRPDGALYGSLHFDPEACSFRELLLEDGYNVYQSEAHGLPLHLPGQRSPHRDPAPRGPARFLPLPGLPPALPEPPGILAPQPPDVGSSDPLSLVGGSQGRSPSYKS	25.1
Compound 13 (ligand, Moiety A (HOOC-(CH2)16-CO-gGlu-2XADO) on 222K of fusion polypeptide) HGEGTFTSDVSSYLEEQAAREFIAWLVRGGGGAQPGAQPGAQPGAQPGAQPHPIPDSSPLLQFGGQVRQRYLYTDDAQQTEAHLEIREDGTVGGAADQSPESLLQLRALRPGVIQILGVRTSRFLCQRPDGALYGSLHFDPEACSFRELLLEDGYNVYQSEAHGLPLHLPGQRSPHRDPAPRGPARFLPLPGLPPALPEPPGILAPQPPDVGSSDPLSLVGKSQGRSPSYES	19.6
Compound 11 (ligand, Moiety A (HOOC-(CH2)16-CO-gGlu-2XADO) on 221K of fusion polypeptide) HGEGTFTSDVSSYLEEQAAREFIAWLVRGGGGGGGSGGGGSGGGGSGGGGSHPIPDSSPLLQFGGQVRQRYLYTDDAQQTEAHLEIREDGTVGGAADQSPESLLQLRALRPGVIQILGVRTSRFLCQRPDGALYGSLHFDPEACSFRELLLEDGYNVYQSEAHGLPLHLPGQRSPHRDPAPRGPARFLPLPGLPPALPEPPGILAPQPPDVGSSDPLSLVKPSQGRSPSYES	18.2
Compound 22 (ligand, Moiety A (HOOC-(CH2)16-CO-gGlu-2XADO) on 51K and 231K of fusion polypeptide) HGEGTFTSDVSSYLEEQAAREFIAWLVRGGGGGGGSGGGGSGGGGSGGGGKHPIPDSSPLLQFGGQVRQRYLYTDDAQQTEAHLEIREDGTVGGAADQSPESLLQLRALRPGVIQILGVRTSRFLCQRPDGALYGSLHFDPEACSFRELLLEDGYNVYQSEAHGLPLHLPGQRSPHRDPAPRGPARFLPLPGLPPALPEPPGILAPQPPDVGSSDPLSLVGGSQGRSPSYK	50.4
Compound 71 (ligand, Moiety B (HOOC-(CH2)20-CO-gGlu-2XADO-EDA-CO-CH2) on 52C and 282C of fusion polypeptide) HGEGTFTSDVSSYLEEQAAKEFIAWLVKGGGGAQPGAQPGAQPGAQPGAQPCQAPGAQPGAQPGAQPGAQPGAQPGAQPGAQPGAQPGAQPGAQPGAQPGAQPGAQPGAQPHPIPDSSPLLQFGGQVRQRYLYTDDAQQTEAHLEIREDGTVGGAADQSPESLLQLKALKPGVIQILGVKTSRFLCQRPDGALYGSLHFDPEACSFRELLLEDGYNVYQSEAHGLPLHLPGQKSPHRDPAPRGPARFLPLPGLPPALPEPPGILAPQPPDVGSSDPLSLVGCSQGRSPSYES	16.5

Exam item: Data request, read-out GLP-1 activity (EC50, pM); CRE luciferase reporter, for Compound 5 (ligand, Moiety A (HOOC-(CH2)16-CO-gGlu-2XADO) on 51K and 222K of fusion polypeptide) HGEGTFTSDVSSYLEEQAAREFIAWLVRGGGGGGGSGGGGSGGGGSGGGGKHPIPDSSPLLQFGGQVRQRYLYTDDAQQTEAHLEIREDGTVGGAADQSPESLLQLRALRPGVIQILGVRTSRFLCQRPDGALYGSLHFDPEACSFRELLLEDGYNVYQSEAHGLPLHLPGQRSPHRDPAPRGPARFLPLPGLPPALPEPPGILAPQPPDVGSSDPLSLVGKSQGRSPSYAS
Marked response: 23.1

Exam item: Requested read-out: GLP-1 activity (EC50, pM); CRE luciferase reporter. Entry: Compound 2 (ligand, Moiety A (HOOC-(CH2)16-CO-gGlu-2XADO) on 20K and 231K of fusion polypeptide) HGEGTFTSDVSSYLEEQAAKEFIAWLVRGGGGGGGSGGGGSGGGGSGGGGSHPIPDSSPLLQFGGQVRQRYLYTDDAQQTEAHLEIREDGTVGGAADQSPESLLQLRALRPGVIQILGVRTSRFLCQRPDGALYGSLHFDPEACSFRELLLEDGYNVYQSEAHGLPLHLPGQRSPHRDPAPRGPARFLPLPGLPPALPEPPGILAPQPPDVGSSDPLSLVGGSQGRSPSYKS
Marked response: 46.6

Exam item: Suppose we examine the binder Compound 15 (ligand, Moiety A (HOOC-(CH2)16-CO-gGlu-2XADO) on 231K of fusion polypeptide) HGEGTFTSDVSSYLEEQAAREFIAWLVRGGGGGGGSGGGGSGGGGSGGGGSHPIPDSSPLLQFGGQVRQRYLYTDDAQQTEAHLEIREDGTVGGAADQSPESLLQLRALRPGVIQILGVRTSRFLCQRPDGALYGSLHFDPEACSFRELLLEDGYNVYQSEAHGLPLHLPGQRSPHRDPAPRGPARFLPLPGLPPALPEPPGILAPQPPDVGSSDPLSLVGPSQGRSPSYKS ; what GLP-1 activity (EC50, pM); CRE luciferase reporter value has been reported?
Marked response: 16.8

Exam item: Fill in: GLP-1 activity (EC50, pM); CRE luciferase reporter of Compound 73 (ligand, Moiety B (HOOC-(CH2)20-CO-gGlu-2XADO-EDA-CO-CH2) on 42C and 282C of fusion polypeptide) HGEGTFTSDVSSYLEEQAAKEFIAWLVKGGGGAQPGAQPGQCPGAQPGAQPGAQPGAQPGAQPGAQPGAQPGAQPGAQPGAQPGAQPGAQPGAQPGAQPGAQPGAQPGAQPHPIPDSSPLLQFGGQVRQRYLYTDDAQQTEAHLEIREDGTVGGAADQSPESLLQLKALKPGVIQILGVKTSRFLCQRPDGALYGSLHFDPEACSFRELLLEDGYNVYQSEAHGLPLHLPGQKSPHRDPAPRGPARFLPLPGLPPALPEPPGILAPQPPDVGSSDPLSLVGCSQGRSPSYES is ___
Marked response: 16.6
